Recorded values, source ChEMBL document CHEMBL1145006.

Molecular target: Somatostatin receptor type 3 (Homo sapiens, UniProt P32745)
Sequence (P32745 whole entry): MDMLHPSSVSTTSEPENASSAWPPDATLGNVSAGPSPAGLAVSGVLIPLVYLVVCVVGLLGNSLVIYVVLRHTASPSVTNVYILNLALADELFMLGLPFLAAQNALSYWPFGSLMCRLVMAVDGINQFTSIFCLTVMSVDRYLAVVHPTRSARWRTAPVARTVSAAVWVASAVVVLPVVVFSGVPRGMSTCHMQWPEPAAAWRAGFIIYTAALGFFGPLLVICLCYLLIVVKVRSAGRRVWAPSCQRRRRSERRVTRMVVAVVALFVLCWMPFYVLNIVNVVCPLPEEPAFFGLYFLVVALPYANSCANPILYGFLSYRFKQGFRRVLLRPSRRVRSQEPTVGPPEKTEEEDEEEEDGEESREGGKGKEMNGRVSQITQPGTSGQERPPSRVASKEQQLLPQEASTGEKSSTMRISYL
Assay: Binding affinity towards human Somatostatin receptor type 3 (sst3) using Tyr11-[125I]-SRIF as radioligand was determined in CHO cells
pKi: −log10 of the molar value. Starred links: 1 amine or outer side, 2 acyl side, 3 side chain; linkers in the order of their positions; H or OH if unused. Positions of bridges follow the written chain, without caps; N, C: chain ends. Non-standard residues stand in square brackets, D forms with d. Residues, ends and D or L forms follow the SMILES beside them. Groups on a side chain read outwards from the residue. *: point of attachment. Ethylenediamine = C(CN[*:2])N[*:1]; Hyp = O=C(O)[C@@H]1C[C@@H](O)CN1; CO = O=C([*:1])[*:2]; Bn = c1ccc(C*)cc1
# pKi per record follows
QUANTITY_MEASURED: pKi

>>> reported_value("NCCCC[C@@H]1NC(=O)[C@@H](Cc2c[nH]c3ccccc23)NC(=O)[C@H](Cc2ccccc2)NC(=O)[C@@H]2C[C@@H](OC(=O)NCCN)CN2C(=O)[C@H](Cc2ccccc2)NC(=O)[C@H](Cc2ccc(OCc3ccccc3)cc2)NC1=O (cyclo(F[Hyp]([CO-Ethylenediamine])F[dW]KY(Bn)))")
9.10
>>> reported_value("C[C@H](N)C(=O)NCC(=O)N[C@H]1CSSC[C@@H](C(N)=O)NC(=O)[C@H](CO)NC(=O)[C@H]([C@@H](C)O)NC(=O)[C@H](Cc2ccccc2)NC(=O)[C@H](C)NC(=O)[C@H](CCCCN)NC(=O)[C@H](Cc2c[nH]c3ccccc23)NC(=O)[C@H](Cc2ccccc2)NC(=O)[C@H](Cc2ccccc2)NC(=O)[C@H](CC(N)=O)NC(=O)[C@H](CCCCN)NC1=O (H-AGCKNFFWKAFTSC-NH2; disulfide 3-14)")
8.80
>>> reported_value("C[C@H](N)C(=O)NCC(=O)N[C@H]1CSSC[C@@H](C(N)=O)NC(=O)[C@H](CO)NC(=O)[C@H]([C@@H](C)O)NC(=O)[C@H](Cc2ccccc2)NC(=O)[C@H]([C@@H](C)O)NC(=O)[C@H](CCCCN)NC(=O)[C@H](Cc2c[nH]c3ccccc23)NC(=O)[C@H](C)NC(=O)[C@H](Cc2ccccc2)NC(=O)[C@H](CC(N)=O)NC(=O)[C@H](CCCCN)NC1=O (H-AGCKNFAWKTFTSC-NH2; disulfide 3-14)")
7.60
>>> reported_value("CN(C)CCNC(=O)O[C@@H]1C[C@H]2C(=O)N[C@@H](Cc3ccccc3)C(=O)N[C@H](Cc3c[nH]c4ccccc34)C(=O)N[C@@H](CCCCN)C(=O)N[C@@H](Cc3ccc(OCc4ccccc4)cc3)C(=O)N[C@@H](Cc3ccccc3)C(=O)N2C1")
9.50

###

Target: Somatostatin receptor type 1 (Homo sapiens, UniProt P30872)
Sequence (P30872 whole entry): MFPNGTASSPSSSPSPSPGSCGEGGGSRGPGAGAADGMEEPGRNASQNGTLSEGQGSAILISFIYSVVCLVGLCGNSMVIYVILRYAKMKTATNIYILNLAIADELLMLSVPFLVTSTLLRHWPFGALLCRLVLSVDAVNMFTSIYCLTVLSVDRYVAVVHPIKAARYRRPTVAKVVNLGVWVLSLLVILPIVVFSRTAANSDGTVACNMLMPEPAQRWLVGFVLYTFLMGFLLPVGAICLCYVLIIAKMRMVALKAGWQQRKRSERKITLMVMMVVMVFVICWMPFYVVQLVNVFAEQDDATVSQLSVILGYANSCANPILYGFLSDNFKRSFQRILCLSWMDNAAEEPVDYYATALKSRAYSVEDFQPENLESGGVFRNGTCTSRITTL
Assay: Binding affinity towards human Somatostatin receptor type 1 (sst1) using Tyr11-[125I]-SRIF as radioligand was determined in CHO cells
Positions of bridges follow the written chain, without caps; N, C: chain ends. Residues, ends and D or L forms follow the SMILES beside them.
QUANTITY_MEASURED: Ki (nM)

>>> reported_value("CN(C)CCNC(=O)O[C@@H]1C[C@H]2C(=O)N[C@@H](Cc3ccccc3)C(=O)N[C@H](Cc3c[nH]c4ccccc34)C(=O)N[C@@H](CCCCN)C(=O)N[C@@H](Cc3ccc(OCc4ccccc4)cc3)C(=O)N[C@@H](Cc3ccccc3)C(=O)N2C1")
1.58
>>> reported_value("C[C@H](N)C(=O)NCC(=O)N[C@H]1CSSC[C@@H](C(N)=O)NC(=O)[C@H](CO)NC(=O)[C@H]([C@@H](C)O)NC(=O)[C@H](Cc2ccccc2)NC(=O)[C@H](C)NC(=O)[C@H](CCCCN)NC(=O)[C@H](Cc2c[nH]c3ccccc23)NC(=O)[C@H](Cc2ccccc2)NC(=O)[C@H](Cc2ccccc2)NC(=O)[C@H](CC(N)=O)NC(=O)[C@H](CCCCN)NC1=O (H-AGCKNFFWKAFTSC-NH2; disulfide 3-14)")
6.31
